All figures here come from ChEMBL document CHEMBL1201862.

system: Streptococcus; assay: GAS UMAA2166 growth inhibition – luminescence, BacTiterGlo, counter-screen for streptokinase expression inhibitor project, dose response (AID 1915); assay type: functional, organism-based;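 also: potency for reduction of bacterial viability or growth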
Active and inactive are the calls of the source.
assay_metric: EC50

[[record]]
molecule = "NNc1nc(-c2ccccc2)c2cc(Br)ccc2n1"
readout_value = "41.8 µM (active)"

[[record]]
molecule = "OC(COc1cccc2ccccc12)CN1CCN(c2cccc(Cl)c2)CC1 (centres undefined)"
readout_value = "31 µM (active)"

[[record]]
molecule = "CCOc1ccc(Cl)cc1S(=O)(=O)n1cnc2cc(C)c(C)cc21"
readout_value = "> 150 µM (not active)"

[[record]]
molecule = "COc1ccc(/C=C/c2ccc3cccc(O)c3n2)cc1Br"
readout_value = "13.5 µM (active)"


----------
Item-by-item account of IC50
biological target: G-protein coupled receptor 55 (Homo sapiens); test: inhibition of LPI-stimulated GPR55 beta-arrestin translocation – imaging, U2OS, beta-arrestin-GFP, LPI agonist, primary screen (AID 2013); type: functional;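 also: antagonist potency measured as reduced agonist-driven arrestin aggregation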
Sequence (Q9Y2T6 whole entry): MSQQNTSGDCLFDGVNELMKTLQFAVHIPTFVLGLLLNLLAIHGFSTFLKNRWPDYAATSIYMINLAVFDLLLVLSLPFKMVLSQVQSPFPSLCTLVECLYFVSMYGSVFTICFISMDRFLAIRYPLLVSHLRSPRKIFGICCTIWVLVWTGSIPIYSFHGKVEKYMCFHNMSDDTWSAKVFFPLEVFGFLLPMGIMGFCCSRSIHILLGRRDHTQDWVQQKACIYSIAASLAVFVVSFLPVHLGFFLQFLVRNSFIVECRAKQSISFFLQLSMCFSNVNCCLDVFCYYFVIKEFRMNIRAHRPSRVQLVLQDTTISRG
Active and inactive are the calls of the source.
assay_metric: IC50

[[record]]
molecule = "CCOC(=O)c1c(CSC(=N)N)n(C)c2cc(Br)c(OC(C)=O)cc12"
readout_value = "1220 nM (active)"

[[record]]
molecule = "COC(=O)C1=C(N)c2c(F)cccc2C1(C#N)c1ccc(F)cc1 (centres undefined)"
readout_value = "1260 nM (active)"

[[record]]
molecule = "CC1CC(N(C(=O)c2ccco2)c2ccccc2)c2ccccc2N1C(=O)c1ccco1 (centres undefined)"
readout_value = "5520 nM (active)"

[[record]]
molecule = "O=C1CSC(c2ccccc2Br)N1c1ccc(Cl)cn1 (centres undefined)"
readout_value = "4580 nM (active)"


----------
target: Replicative DNA helicase DnaB (Mycobacterium tuberculosis); experiment: DnaB intein splicing inhibitors, dose response, biochemical, cell-free fluorescence (AID 449749); assay type: functional
Calls of active or inactive are those of the source.
Item-by-item account of AC50
assay_metric: AC50

[[record]]
compound = "COc1cc(OC)cc(C2C(C#N)=C(N)Oc3[nH]nc(-c4cccnc4)c32)c1 (centres undefined)"
subject_of_test = "Replicative DNA helicase DnaB (Mycobacterium tuberculosis)"
readout_value = "18 µM (active)"

[[record]]
compound = "CCOC(=O)Cc1n[nH]c2c1C(c1ccoc1)C(C#N)=C(N)O2 (centres undefined)"
subject_of_test = "Replicative DNA helicase DnaB (Mycobacterium tuberculosis)"
readout_value = "18.4 µM (active)"

[[record]]
compound = "CC(C)c1ccc(/C=C(\\c2nc3ccccc3[nH]2)S(=O)(=O)c2ccccc2)cc1"
subject_of_test = "Replicative DNA helicase DnaB (Mycobacterium tuberculosis)"
readout_value = "2.09 µM (active)"

[[record]]
compound = "CC(C)(C)c1ccc(/C=C(\\c2nc3ccccc3[nH]2)S(=O)(=O)c2ccccc2)cc1"
subject_of_test = "Replicative DNA helicase DnaB (Mycobacterium tuberculosis)"
readout_value = "2.19 µM (active)"


----------
biological target: Tumor necrosis factor (Homo sapiens, UniProt P01375); assay: analog potency on TNFa NF-kB signaling – cell-based, revised, SAR follow-up (AID 2337); assay type: functional
Sequence (P01375 whole entry): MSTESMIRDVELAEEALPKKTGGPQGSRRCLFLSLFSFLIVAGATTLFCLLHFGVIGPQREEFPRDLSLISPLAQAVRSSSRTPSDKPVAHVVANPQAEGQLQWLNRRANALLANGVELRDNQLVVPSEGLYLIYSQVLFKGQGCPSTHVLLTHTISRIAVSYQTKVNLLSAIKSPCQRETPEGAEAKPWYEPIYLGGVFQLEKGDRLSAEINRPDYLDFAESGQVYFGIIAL
Calls of active or inactive are those of the source.
Item-by-item account of IC50
assay_metric: IC50

[[record]]
molecule = "CCC(=O)N1CCc2cc(S(=O)(=O)N3CCN(c4ccc(C(C)=O)cc4)CC3)ccc21"
assay_metric = "IC50"
readout_value = "> 20 µM (inactive)"

[[record]]
molecule = "CCn1nc(C)cc1C(=O)NC1CCCc2c1cnn2-c1ccc(C)c(C)c1 (centres undefined)"
assay_metric = "IC50"
readout_value = "4.43 µM (active)"

[[record]]
molecule = "COC(=O)c1scc(S(=O)(=O)C(C)C)c1NN=C(C#N)C(=O)c1ccc(Cl)cc1"
assay_metric = "IC50"
readout_value = "10.9 µM (active)"

[[record]]
molecule = "CN(C)S(=O)(=O)c1cccc(CSCc2cccc(S(=O)(=O)N(C)C)c2)c1"
assay_metric = "IC50"
readout_value = "2.09 µM (active)"

